Listing of recorded growth inhibition by entry.
measurement-notes: NCI Yeast Anticancer Drug Screen. Data for the cln2 rad14 strain (AID 165);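 note: 0% = growth equal to vehicle treated cultures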
condition-summary: S. cerevisiae cln2 rad14 strain, at 50.0 µM, stronger effect = higher value
About 79,000 compounds went through this panel and 15% of them were active in at least one assay; those are over-represented in the sample as a whole. Where a SMILES comes first, the peptide text is derived from it.
result-type: growth inhibition (%)

[
  {
    "compound": "O=C1c2ccccc2-c2ccc(-n3c(=O)c4ccccc4c4ccccc4c3=O)cc21",
    "unit-abbrev": "%",
    "measurement": 16.1
  },
  {
    "compound": "COCC1C(COC)C2CCC1C2(Cc1ccccc1)Cc1ccccc1 (stereo not given)",
    "unit-abbrev": "%",
    "measurement": -45.4
  },
  {
    "compound": "CCOC(=O)c1c(C(=O)OC)nc2n1-c1ccccc1OC2",
    "unit-abbrev": "%",
    "measurement": -17.8
  },
  {
    "compound": "Nc1ncnc2c1ncn2CCC(COCc1ccccc1)COCc1ccccc1",
    "unit-abbrev": "%",
    "measurement": -10
  },
  {
    "compound": "Cn1c(Cl)cn2c3nc4ccccc4nc3c(=O)c(C#N)c12",
    "unit-abbrev": "%",
    "measurement": 1.3
  },
  {
    "compound": "CC(=O)NNC(=S)N/C=C(\\C#N)c1nc2ccccc2s1",
    "unit-abbrev": "%",
    "measurement": 18.4
  },
  {
    "compound": "NCCCc1ccc(C(=O)O)cc1",
    "unit-abbrev": "%",
    "measurement": -40.2
  },
  {
    "compound": "COc1cc(C(=O)N2C3C4CCC(C)(OC4(C)C)C32)cc(OC)c1OC (stereo not given)",
    "unit-abbrev": "%",
    "measurement": 10.2
  },
  {
    "compound": "O=C(Nc1c(Cl)cccc1Cl)Nc1c(Cl)cccc1Cl",
    "unit-abbrev": "%",
    "measurement": 6.7
  },
  {
    "compound": "COc1cc(NCCCCCCN(C)C)c2ncccc2c1",
    "unit-abbrev": "%",
    "measurement": -19.4
  },
  {
    "compound": "Oc1[nH]c2ccccc2c1N=NC(=S)Nc1ccccc1Cl",
    "unit-abbrev": "%",
    "measurement": 36.2
  },
  {
    "compound": "Cc1csc(NNC(N)=O)n1",
    "unit-abbrev": "%",
    "measurement": -14
  },
  {
    "compound": "CSC(=NCCCCN=C(NS(=O)(=O)c1ccc(Cl)cc1)SC)NS(=O)(=O)c1ccc(Cl)cc1",
    "unit-abbrev": "%",
    "measurement": 13.9
  },
  {
    "compound": "Cc1ccccc1NC(=O)Cc1csc2[n+]1C(=O)/C(=C\\c1ccc3c(c1)OCO3)S2",
    "unit-abbrev": "%",
    "measurement": 3
  },
  {
    "compound": "Cn1c(=O)c2c(nc(N3CCOCC3)n2CCCNCC(O)c2ccc(O)c(O)c2)n(C)c1=O (stereo not given)",
    "unit-abbrev": "%",
    "measurement": -29.9
  },
  {
    "compound": "CCCNC(=O)N1C(=O)c2ccccc2S1(=O)=O",
    "unit-abbrev": "%",
    "measurement": -26.1
  },
  {
    "compound": "O=C(COc1ccc(Cl)c(Cl)c1)NCc1cccc(Cl)c1",
    "unit-abbrev": "%",
    "measurement": -2.85
  },
  {
    "compound": "CN(CC(N)=O)C(=O)c1cnc2ccccc2c1",
    "unit-abbrev": "%",
    "measurement": 8.05
  },
  {
    "compound": "CC(C)NC(=O)N(C(=O)C(F)(F)F)C(C)C",
    "unit-abbrev": "%",
    "measurement": -41
  },
  {
    "compound": "O=c1c(SCc2ccc(Cl)cc2Cl)c(SCc2ccc(Cl)cc2Cl)cnn1-c1ccccc1",
    "unit-abbrev": "%",
    "measurement": 23.9
  },
  {
    "compound": "O=C1OCC(CN2CCC(n3c(=O)[nH]c4ccccc43)CC2)=C1c1ccccc1",
    "unit-abbrev": "%",
    "measurement": -25.7
  },
  {
    "compound": "O=S(=O)(N=S(c1ccccc1)c1ccccc1)c1ccccc1",
    "unit-abbrev": "%",
    "measurement": -20.9
  },
  {
    "compound": "COc1cc2ccc3c[n+](C)ccc3c2cc1OC",
    "unit-abbrev": "%",
    "measurement": -22.4
  },
  {
    "compound": "O=C(C[n+]1ccnc2ccccc21)c1ccc(Br)cc1",
    "unit-abbrev": "%",
    "measurement": 6.45
  },
  {
    "compound": "O=S1C=Cc2ccccc21 (stereo not given)",
    "unit-abbrev": "%",
    "measurement": 5.8
  },
  {
    "compound": "COc1ccc(CC(C)=C(C#N)C#N)cc1OC",
    "unit-abbrev": "%",
    "measurement": 11.8
  },
  {
    "compound": "CCOC(=O)CNC(=O)C(Cc1ccccc1)NC(=O)C(N)CC(=O)O (stereo not drawn) (H-Asp-Phe-Gly-OEt; configuration not given here)",
    "unit-abbrev": "%",
    "measurement": -19.9
  },
  {
    "compound": "COc1ccc(-c2cc(N3CCN(c4ccccc4)CC3)c(C#N)c(=O)o2)cc1",
    "unit-abbrev": "%",
    "measurement": 15.8
  },
  {
    "compound": "O=C1C2C3(CCl)C1C23CCl (stereo not given)",
    "unit-abbrev": "%",
    "measurement": 10.4
  },
  {
    "compound": "OCC1CCCCCCC1",
    "unit-abbrev": "%",
    "measurement": 18.4
  },
  {
    "compound": "C(=Nc1ccccc1-c1ccccc1N=Cc1ccccc1)c1ccccc1",
    "unit-abbrev": "%",
    "measurement": 7.2
  },
  {
    "compound": "CC(=O)C1=C(O)/C(=C/c2ccccc2)NC1=O",
    "unit-abbrev": "%",
    "measurement": -35.5
  },
  {
    "compound": "CC(C)CNc1ncnc2[nH]ncc12",
    "unit-abbrev": "%",
    "measurement": -3.35
  },
  {
    "compound": "O=C(O)C(Br)C(Br)C(=O)Nc1cccc(C(F)(F)F)c1 (stereo not given)",
    "unit-abbrev": "%",
    "measurement": 0.6
  },
  {
    "compound": "CCOCCOc1nc(C)cc(C)c1C#N",
    "unit-abbrev": "%",
    "measurement": -6.4
  },
  {
    "compound": "CSc1ncc(Br)c(Sc2nccn2C)n1",
    "unit-abbrev": "%",
    "measurement": 4.7
  },
  {
    "compound": "COc1ccccc1C1c2cc3c(cc2OC(O)(CO)C1C(=O)O)OCO3 (stereo not given) (tested in a mixture with another compound)",
    "unit-abbrev": "%",
    "measurement": -14
  },
  {
    "compound": "COc1ccc(C(NC(N)=O)c2cc3c(cc2OC(C)=O)OCO3)c(OC)c1 (stereo not given)",
    "unit-abbrev": "%",
    "measurement": 22.4
  },
  {
    "compound": "COc1ccc2ccccc2c1CN1CCOCCOCCN(Cc2c(OC)ccc3ccccc23)CCOCCOCC1",
    "unit-abbrev": "%",
    "measurement": -28.1
  },
  {
    "compound": "O=C(NNC(=O)c1cccc(F)c1)c1ccccc1",
    "unit-abbrev": "%",
    "measurement": -6.05
  }
]
